# testSystem: human CYP1A2 (Homo sapiens, UniProt P05177)
# Sequence (P05177 1-516): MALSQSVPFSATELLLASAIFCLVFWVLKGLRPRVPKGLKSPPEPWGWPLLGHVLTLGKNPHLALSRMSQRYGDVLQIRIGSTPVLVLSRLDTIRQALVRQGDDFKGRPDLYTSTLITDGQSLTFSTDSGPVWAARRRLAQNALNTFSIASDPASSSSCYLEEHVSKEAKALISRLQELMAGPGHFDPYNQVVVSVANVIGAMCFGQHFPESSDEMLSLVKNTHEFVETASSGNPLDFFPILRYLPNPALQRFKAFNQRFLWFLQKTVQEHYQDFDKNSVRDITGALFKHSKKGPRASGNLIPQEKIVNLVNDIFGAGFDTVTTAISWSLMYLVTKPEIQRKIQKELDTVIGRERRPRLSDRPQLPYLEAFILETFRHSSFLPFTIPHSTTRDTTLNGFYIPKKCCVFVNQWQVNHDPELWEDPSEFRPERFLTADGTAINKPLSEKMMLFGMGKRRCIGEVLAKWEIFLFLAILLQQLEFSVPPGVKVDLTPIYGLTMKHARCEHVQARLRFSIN
# testDescription: biochemical
# protocolConditions: CYP1A2 IC50 (half-maximal inhibitory concentration)
pIC50: −log10 of the molar value. Structures can show the parent of a compound that is named as a salt.
pIC50 reference

compound	testSystem	pIC50
O=C1c2ccccc2C(=O)c2ccccc21 [Anthraquinone]	human CYP1A2 (Homo sapiens, UniProt P05177)	6.64
CCOP(=S)(OCC)SCSc1ccc(Cl)cc1 [Carbophenothion]	human CYP1A2 (Homo sapiens, UniProt P05177)	5.05
Clc1ccc(COC(Cn2ccnc2)c2ccc(Cl)cc2Cl)cc1 (centres unmarked) [Econazole nitrate]	human CYP1A2 (Homo sapiens, UniProt P05177)	5.93
CC(C)(C)C(O)C(Oc1ccc(-c2ccccc2)cc1)n1cncn1 (centres unmarked) [Bitertanol]	human CYP1A2 (Homo sapiens, UniProt P05177)	4.31
Cc1[nH]cnc1CN1CCc2c(c3ccccc3n2C)C1=O [Alosetron hydrochloride]	human CYP1A2 (Homo sapiens, UniProt P05177)	6.05
CC(C)(C)C(O)(CCc1ccc(Cl)cc1)Cn1cncn1 (centres unmarked) [Tebuconazole]	human CYP1A2 (Homo sapiens, UniProt P05177)	4.50
CN1C[C@H](C(=O)N[C@]2(C)O[C@@]3(O)[C@@H]4CCCN4C(=O)[C@H](Cc4ccccc4)N3C2=O)C=C2c3cccc4[nH]cc(c34)C[C@H]21 [Ergotamine D-tartrate]	human CYP1A2 (Homo sapiens, UniProt P05177)	4.65
CNCCC(Oc1ccc(C(F)(F)F)cc1)c1ccccc1 (centres unmarked) [Fluoxetine hydrochloride]	human CYP1A2 (Homo sapiens, UniProt P05177)	4.68

====

// each record: one item and its CYP2C19 AC50 (half-maximal activity concentration) for human CYP2C19 (Homo sapiens, UniProt P33261)
assayMetric: CYP2C19 AC50 (half-maximal activity concentration)

>>> df
                                   compound                  result
0  CC(=O)OCC(=O)[C@@]12N=C(C)O[C@@H]1C[C@H]1[C@@H]3CCC4=CC(=O)C=C[C@]4(C)[C@H]3[C@@H](O)C[C@@]12C [Deflazacort]                Inactive
1  COC(=O)c1cc(S(N)(=O)=O)ccc1OC [Methyl 5-sulfamoyl-o-anisate]                Inactive
2  Oc1c(Cl)cc(Cl)c(Cl)c1Cl [2,3,4,6-Tetrachlorophenol]                Inactive
3  Oc1c(Cl)c(Cl)c(Cl)c(Cl)c1Cl [Sodium pentachlorophenate]                Inactive
4  O=C(Cl)c1cc(Cl)cc(Cl)c1 [3,5-Dichlorobenzoyl chloride]  Inconclusive inhibitor
5  CCCCCCCCS(=O)(=O)[O-].[Na+] [Sodium 1-octanesulfonate]                Inactive
6  Oc1ccc(-c2ccc(O)cc2)cc1 [4,4'-Biphenyldiol]  Inconclusive inhibitor
7       CCC(=O)c1ccc(O)cc1 [Paroxypropione]                Inactive

====

# testSystem: human CYP2C19 (Homo sapiens)
# Sequence (P33261 whole entry): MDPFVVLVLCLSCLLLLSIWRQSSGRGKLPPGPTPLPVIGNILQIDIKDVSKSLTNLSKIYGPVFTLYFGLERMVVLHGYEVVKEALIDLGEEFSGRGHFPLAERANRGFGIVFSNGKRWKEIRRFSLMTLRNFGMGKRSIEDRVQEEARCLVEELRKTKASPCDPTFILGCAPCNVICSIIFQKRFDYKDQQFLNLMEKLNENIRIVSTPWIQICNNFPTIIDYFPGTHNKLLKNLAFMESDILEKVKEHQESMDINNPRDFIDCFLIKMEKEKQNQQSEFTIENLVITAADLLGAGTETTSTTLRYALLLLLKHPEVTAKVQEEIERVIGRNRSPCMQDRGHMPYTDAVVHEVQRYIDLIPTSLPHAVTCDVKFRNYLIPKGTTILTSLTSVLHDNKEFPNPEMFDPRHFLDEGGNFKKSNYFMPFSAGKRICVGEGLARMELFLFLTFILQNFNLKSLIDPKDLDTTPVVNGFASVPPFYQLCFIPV
# testDescription: biochemical
# protocolConditions: CYP2C19 IC50
pIC50: −log10 of the molar value.
Decision: pIC50 >= 5 yields 1, all other cases yield 0.

>>> print(df.to_string())
                                   compound  classification
0              COc1nn(CSP(=S)(OC)OC)c(=O)s1               1
1              Oc1cc(Cl)ccc1Oc1ccc(Cl)cc1Cl               1
2               COP(=S)(OC)Oc1ccc(SC)c(C)c1               1
3  ClC1=C(Cl)C2(Cl)C3C4CC(C5OC45)C3C1(Cl)C2(Cl)Cl (stereo not drawn)               0
4                c1cc2ccc3cccc4ccc(c1)c2c34               0

====

# testSystem: human CYP1A2 (Homo sapiens)
assayMetric: CYP1A2 AC50 (half-maximal activity concentration)

molecule	testSystem	result
O=C(O)Cc1cc(I)c(Oc2cc(I)c(O)c(I)c2)c(I)c1 [Tetrac]	human CYP1A2 (Homo sapiens)	Inactive
O=C1OC(=O)c2cc(Oc3ccc4c(c3)C(=O)OC4=O)ccc21 [5,5'-Oxybis(2-benzofuran-1,3-dione)]	human CYP1A2 (Homo sapiens)	Inactive
CCCCCCCCS(=O)(=O)[O-].[Na+] [Sodium 1-octanesulfonate]	human CYP1A2 (Homo sapiens)	Inactive
Cc1cccc(Nc2ccccc2C(=O)O)c1C [Mefenamic acid]	human CYP1A2 (Homo sapiens)	Inconclusive inhibitor
CCOC(=O)C1=NOC(c2ccccc2)(c2ccccc2)C1 [Isoxadifen-ethyl]	human CYP1A2 (Homo sapiens)	Inconclusive inhibitor
CCOCN(C(=O)CCl)c1c(C)cccc1CC [Acetochlor]	human CYP1A2 (Homo sapiens)	Inconclusive inhibitor
O=C(O)c1cc(Cl)cc(Cl)c1O [3,5-Dichlorosalicylic acid]	human CYP1A2 (Homo sapiens)	Inconclusive inhibitor
CC(Oc1cc(Cl)c(Cl)cc1Cl)C(=O)O (centres unmarked) [2-(2,4,5-Trichlorophenoxy)propionic acid]	human CYP1A2 (Homo sapiens)	Inactive
ClC(Cl)=C(c1ccc(Cl)cc1)c1ccccc1Cl [o,p'-DDE]	human CYP1A2 (Homo sapiens)	Inactive
COC(=O)c1cc(S(N)(=O)=O)ccc1OC [Methyl 5-sulfamoyl-o-anisate]	human CYP1A2 (Homo sapiens)	Inactive
CC(=O)[O-].CC(=O)[O-].CC(=O)[O-].[Cr+3] [Chromium(III) acetate]	human CYP1A2 (Homo sapiens)	Inactive
CCC(C)(C)C1CCC(O)CC1 (centres unmarked) [4-(2-Methylbutan-2-yl)cyclohexanol]	human CYP1A2 (Homo sapiens)	Inconclusive inhibitor
O=C(Cl)c1cccc(C(=O)Cl)c1 [1,3-Benzenedicarbonyl dichloride]	human CYP1A2 (Homo sapiens)	Inactive
COc1cc(Nc2c(C#N)cnc3cc(OCCCN4CCN(C)CC4)c(OC)cc23)c(Cl)cc1Cl [Bosutinib]	human CYP1A2 (Homo sapiens)	Inactive
COC(=O)C(C)N(C(=O)Cc1ccccc1)c1c(C)cccc1C (centres unmarked) [Benalaxyl]	human CYP1A2 (Homo sapiens)	Inactive
CCC(=O)O[C@@H]1C=C2CC[C@@H]3[C@H](CC[C@]4(C)[C@@H](OC(=O)CC)CC[C@@H]34)C2CC1 (some centres unmarked) [Bolandiol dipropionate]	human CYP1A2 (Homo sapiens)	Inconclusive inhibitor
CC(=O)OCC(=O)[C@@]1(OC(C)=O)[C@@H](C)C[C@H]2[C@@H]3C[C@H](F)C4=CC(=O)C=C[C@]4(C)[C@@]3(F)[C@@H](O)C[C@@]21C [Diflorasone diacetate]	human CYP1A2 (Homo sapiens)	Inactive

====

# testSystem: human CYP2D6 (Homo sapiens, UniProt P10635)
# Sequence (P10635 whole entry): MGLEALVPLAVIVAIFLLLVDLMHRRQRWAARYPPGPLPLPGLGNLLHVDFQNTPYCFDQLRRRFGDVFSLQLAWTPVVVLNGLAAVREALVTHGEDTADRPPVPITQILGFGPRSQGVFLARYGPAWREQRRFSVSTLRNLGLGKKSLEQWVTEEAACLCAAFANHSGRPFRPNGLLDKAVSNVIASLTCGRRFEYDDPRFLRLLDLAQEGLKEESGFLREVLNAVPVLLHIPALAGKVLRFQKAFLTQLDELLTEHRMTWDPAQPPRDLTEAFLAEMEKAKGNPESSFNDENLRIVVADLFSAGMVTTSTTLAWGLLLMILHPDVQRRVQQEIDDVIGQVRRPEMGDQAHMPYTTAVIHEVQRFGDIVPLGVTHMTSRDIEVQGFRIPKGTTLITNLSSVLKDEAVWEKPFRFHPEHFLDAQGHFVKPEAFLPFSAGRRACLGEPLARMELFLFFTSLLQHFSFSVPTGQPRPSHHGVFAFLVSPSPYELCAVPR
# testDescription: biochemical
# protocolConditions: CYP2D6 AC50 (half-maximal activity concentration)
Where a name gives a salt, the structure may show the parent alone.
assayMetric: AC50 (µM)

>>> df
                                    compound  resultnumber
 0  CC(=O)[C@H]1CC[C@H]2[C@@H]3CCC4=CC(=O)CC[C@]4(C)[C@H]3CC[C@]12C [Progesterone]          47.7
 1  Oc1c(Br)cc(Br)cc1Br [2,4,6-Tribromophenol]          68.4
 2  CC1CCC(C(C)C)C(OC(=O)c2ccccc2N)C1 (stereo not shown) [Menthyl anthranilate]          57.9
 3  O=C1C(=O)c2cccc3cccc1c23 [Acenaphthenequinone]          23.4
 4  O=C(O)c1cc(Cl)cc(Cl)c1 [3,5-Dichlorobenzoic acid]          27.8
 5  CCOc1ccc(C(C)(C)COCc2cccc(Oc3ccccc3)c2)cc1 [Etofenprox]          34.3
 6  COP(=O)(OC)O/C(=C\Cl)c1cc(Cl)c(Cl)cc1Cl [Z-Tetrachlorvinphos]          56.6
 7  Nc1ccc(S(=O)(=O)Nc2nccs2)cc1 [Sulfathiazole]          56.1
 8  CCOC(=O)C(C)Oc1ccc(Oc2cnc3cc(Cl)ccc3n2)cc1 (stereo not shown) [Quizalofop-ethyl]          42.5
 9  O=C(NC1CCN(CCc2c[nH]c3ccccc23)CC1)c1ccccc1 [Indoramin hydrochloride]          4.31
10  CC1(C)C(C=C(Cl)Cl)C1C(=O)OC(C#N)c1ccc(F)c(Oc2ccccc2)c1 (stereo not shown) [Cyfluthrin]          22.2
11    N=C(N)N/N=C/c1c(Cl)cccc1Cl [Guanabenz]          13.8
12  CCN(CCCc1ccccc1)CCCc1ccccc1 [Alverine citrate]          0.87
13  CCOC(=O)[C@@H](C)Oc1ccc(Oc2nc3ccc(Cl)cc3o2)cc1 [Fenoxaprop-P-ethyl]          47.5
14  Cc1cccc(C)c1NC(=O)CN1CCN(CCCC(c2ccc(F)cc2)c2ccc(F)cc2)CC1 [Lidoflazine]          5.18
15  CN1CCC(=C2c3ccccc3Sc3ccccc32)CC1 [Pimethixene maleate]          3.22
16  NS(=O)(=O)c1ccc(Cl)c(S(N)(=O)=O)c1 [Clofenamide]          30.6
17  O=C(c1ccccc1)C(O)c1ccccc1 (stereo not shown) [Benzoin]          36.7
18  c1ccc(P(c2ccccc2)c2ccccc2)cc1 [Triphenylphosphine]          35.7
